System: SR leukemia
Test: NCI-60 one-dose screen, 48 h (100 = growth as untreated, 0 = no growth, -100 = all killed)
Settings: 10 µM unless noted
Method: Growth inhibition of the SR human tumor cell line is measured as a screen for anti-cancer activity. Cells are grown in 96 well plates and exposed to the test compound for 48 hours. Compounds are tested at a single concentration, which is 10^-5 M for most compounds. The reported endpoint is percent growth (GI% or GIPRCNT), where numbers from 0 - 100% represent growth inhibition, and numbers from -100% - 0 represent cell death. For example, a value of 40 represents 60% growth inhibition. […]
This is part of a sample that, as a whole, favours compounds with a hit. Of some 83,000 tested, about 20% had one in any assay.
// reported growth per item
PROPERTY MEASURED: growth (%)

| COMPOUND | VAL |
| --- | --- |
| CC1(C)CC[C@]2(C(=O)O)CC[C@]3(C)C(=CC[C@@H]4[C@@]5(C)C/C(=C/O)C(=O)C(C)(C)[C@@H]5CC[C@]43C)[C@@H]2C1 | 36.3 |
| CCOC(=O)C1=C(NC)OCC1=O | 93.6 |
| O=C1/C(=C/c2ccccc2Br)COc2ccc(O)c(O)c21 | 14.7 |
| CC(C)=CCC[C@](C)(O)[C@H]1CC[C@]2(C)[C@@H]1CC[C@@H]1[C@@]3(C)Cc4nccnc4C(C)(C)[C@@H]3CC[C@]12C | 43.7 |
| O=C(Cn1c(=O)sc2nc3ccccc3nc21)Nc1ncc(Cc2cccc(Cl)c2Cl)s1 | 101 |
| C=C1C(=O)O[C@H]2[C@H]1CC/C(COC(=O)CSCCSCC(=O)OC/C1=C/CC[C@@]3(C)O[C@H]3[C@H]3OC(=O)C(=C)[C@@H]3CC1)=C\CC[C@@]1(C)O[C@@H]21 | -22.6 |
| O=C(CI)NC1Oc2ccccc2-c2oc(=O)c(-c3ccccc3)cc21 (centres undefined) | -33.5 |
| CCOC(=O)c1nc(Nc2ccc(NC(=O)Nc3ccc(F)cc3)cc2)c2ccccc2n1 | 90.2 |
| C=CCc1c(O)c(C(=O)/C=C/c2ccc(Cl)cc2)c(OC)c2ccoc12 | 17.7 |

----------
test system: OVCAR-5 ovarian; experiment: NCI-60 one-dose screen, 48 h (100 = growth as untreated, 0 = no growth, -100 = all killed); conditions: 10 µM unless noted
The panel holds about 83,000 compounds, 20% with a hit somewhere; the sample as a whole holds those more often.
PROPERTY MEASURED: growth (%)

| COMPOUND | STUDY TARGET | VAL |
| --- | --- | --- |
| O=C(Nc1nc2ccc(F)cc2s1)c1cccnc1Nc1ccc(Cl)cc1 | OVCAR-5 ovarian | 90.9 |
| CN(C)c1ccc(Nc2cc(-c3cccc(OC(F)(F)F)c3)nc3ccc(N4CCCC4)cc23)cc1 | OVCAR-5 ovarian | 100 |
| Brc1ccc(-n2cc(-c3nn[nH]n3)c(-c3cccs3)n2)cc1 | OVCAR-5 ovarian | 100 |
| COC(=O)c1c2c(c(C)[n+]([O-])c1C)C(=O)C=C(NCc1ccc(Br)cc1)C2=O | OVCAR-5 ovarian | -82.8 |
| COC1C[C@H](O[C@@H]2C[C@H](O[C@@H]3C[C@H](O[C@@H]4C(=O)c5c(cc6cc(O[C@H]7C[C@@H](O[C@H]8C[C@@H](O)[C@H](O)C(C)O8)[C@H](O)C(C)O7)c(C)c(O)c6c5O)C[C@H]4C(OC)C(=O)[C@@H](O)[C@@H](C)O)OC(C)[C@H]3O)OC(C)[C@@H]2O)OC(C)[C@@H]1O (stereo not given in full) | OVCAR-5 ovarian | 14.2 |

----------
tested on: NCI/ADR-RES ovarian; experiment: NCI-60 one-dose screen, 48 h; settings: 10 µM unless noted
This is part of a sample that, as a whole, favours compounds with a hit. Of some 83,000 tested, about 20% had one in any assay. Active and inactive are the calls of the source. The calls were made as follows: active = growth percent below 10; inactive = the rest.
Labels: active, inactive

| SMILES REPRESENTATION | CAT |
| --- | --- |
| COC(=O)CNC(=O)[C@H](Cc1ccccc1)NCc1ccncc1 | inactive |
| CN(C)C1CCN(Cc2ccc(NC(=O)c3cncc(C#Cc4cnc(N)c5ncccc45)c3)cc2C(F)(F)F)CC1 | active |
| O=C(/C=C/c1ccc(Cl)cc1)c1cccc(Nc2nc(Nc3ccccc3)nc(Nc3ccccc3)n2)c1 | inactive |
| Cc1ccc2c3c(c(=O)[nH]c2c1)C1(C(C#N)=C(N)O3)c2cc(Br)ccc2-c2ccc(Br)cc21 | inactive |

----------
system: OVCAR-5 ovarian; experiment: NCI-60 one-dose screen, 48 h (100 = growth as untreated, 0 = no growth, -100 = all killed); settings: 10 µM unless noted
This is part of a sample that, as a whole, favours compounds with a hit. Of some 83,000 tested, about 20% had one in any assay.
Label criterion met when growth >= 90%; otherwise criterion not met.

| COMPOUND | CAT |
| --- | --- |
| Cc1cnc(C(=O)NNc2nc3sc4c(c3c(=O)n2C)C(C)CCC4)cn1 (configuration not stated) | criterion not met |
| CC(C)(C)c1cc(-c2nc3ccc(N4CCN(S(C)(=O)=O)CC4)cc3[nH]2)cc(C(C)(C)C)c1O | criterion met |
| COc1cc(CNC(=O)CCCC/C=C/C(C)C)ccc1OCc1nnc(Nc2ccc([N+](=O)[O-])cc2)o1 | criterion met |
| O=C1N[C@@H]2NC(=[N+]3CCOCC3)N[C@@H]2N1 | criterion met |
| Clc1ccc(CNc2c3ccccc3nc3ccccc23)cc1 | criterion not met |
| Cc1nnc(NC(=O)c2nc(S(=O)(=O)Cc3ccc(F)cc3)ncc2Cl)s1 | criterion not met |
| C=C(C)[C@@H]1CC[C@]2(C(=O)NCCNCCN)CC[C@]3(C)[C@H](CC[C@@H]4[C@@]5(C)C/C(=C/c6ccncc6)C(=O)C(C)(C)[C@@H]5CC[C@]43C)[C@@H]12 | criterion met |

----------
test system: K-562 leukemia; experiment: NCI-60 one-dose screen, 48 h; settings: 10 µM unless noted
This is part of a sample that, as a whole, favours compounds with a hit. Of some 83,000 tested, about 20% had one in any assay. Calls of active or inactive are those of the source. How the source made its calls: active means growth percent below 10; inactive means the rest.
Labels: t (active), f (inactive)

| COMPOUND | CAT |
| --- | --- |
| O=C1NCCC12CCN(c1c(Cl)cncc1-c1ccc(O)cc1)CC2 | f |
| CC(C)(C)[Si](C)(C)O[C@H]1C(=O)C=CN2CC=C[C@@H]12 | f |
| CCN1C(=O)N(CC)C2C1NN=c1s/c(=C\c3ccc(Cl)cc3Cl)c(=O)n12 (stereo not given) | t |
| Cn1c(O)c(C=NCCN=Cc2c(O)n(C)c(=O)n(C)c2=O)c(=O)n(C)c1=O | f |
| O=c1oc2c(cnc3ccccc32)cc1-c1ccsc1 | f |
| O=C1N(Cc2ccccc2Cl)c2ccccc2C12NN=C(c1cccc(Cl)c1)S2 (stereo not given) | f |
| CC(=O)c1cc(O)c2ccccc2c1O | f |
| CCS/C(Nc1ccccc1)=C(\C#N)C(=O)N/N=C/c1ccc(Cl)cc1Cl | t |
| Cn1c(=O)c2[nH]c(N/N=C/c3ccccc3Br)nc2n(C)c1=O | f |
| COC1C[C@H](O[C@@H]2C[C@H](O[C@@H]3C[C@H](O[C@@H]4C(=O)c5c(cc6cc(O[C@H]7C[C@@H](O[C@H]8C[C@@H](O)[C@H](O)C(C)O8)[C@H](O)C(C)O7)c(C)c(O)c6c5O)C[C@H]4C(OC)C(=O)[C@@H](O)[C@@H](C)O)OC(C)[C@H]3O)OC(C)[C@@H]2O)OC(C)[C@@H]1O (stereo not given in full) | t |
| O=C(OCc1ccc2cccc(O)c2n1)N1CCN(C(=O)c2cc3cc(F)ccc3[nH]2)CC1 | t |
| O=C1CC(N2C(=O)/C(=C/C(Cl)=C\c3ccc([N+](=O)[O-])cc3)SC2=S)C(=O)N1c1ccc(Cl)cc1 (stereo not given) | t |
| COC(=O)c1c2c(c[n+]([O-])c1C)C(=O)C(NCc1ccccc1)=CC2=O | t |
| CC(=O)[C@@H]1CCC=C2CC[C@]3(C)[C@@H](CC[C@@H]4[C@@]5(C)CCCNC(C)(C)[C@@H]5CC[C@]43C)[C@H]21 | t |
| CC(C)CCC[C@@H](C)[C@H]1CC[C@H]2[C@@H]3CC=C4C[C@@H](C(C(=O)O)C(=O)O)CC[C@]4(C)[C@H]3CC[C@]12C | t |

----------
tested on: U251 CNS; assay: NCI-60 one-dose screen, 48 h; settings: 10 µM unless noted
This is part of a sample that, as a whole, favours compounds with a hit. Of some 83,000 tested, about 20% had one in any assay. Activity calls are given as the source filed them. How the source made its calls: active means growth percent below 10; inactive means the rest.
Labels: active, inactive

| MOLECULE | CAT |
| --- | --- |
| CCN1C(=O)N(CC)C2C1NN=c1s/c(=C\c3cccc([N+](=O)[O-])c3)c(=O)n12 (stereo not given) | inactive |
| CCc1nc2c(=O)[nH]cnc2o1 | inactive |
| CCOC(=O)c1cn2ncnc(Oc3ccc(NC(=O)NC4CCCCC4)c(Cl)c3)c2c1C | inactive |
| Clc1ccc(CNc2c3ccccc3nc3ccccc23)cc1 | inactive |
| CCN1C(=O)N(CC)C2C1NN=c1s/c(=C\c3ccc(Cl)cc3Cl)c(=O)n12 (stereo not given) | inactive |
| COc1ccc(-c2nc(SCC(C)C)nc(N/N=C\c3ccc(F)cc3)c2C#N)cc1 | inactive |
| COc1ccc(-c2nnc3n(C)c(=O)c4ccccc4n23)cc1N | inactive |
| O=C(O)c1ccc(-n2cc(/C=N/Nc3ccc(F)cc3)c(-c3cc4ccccc4oc3=O)n2)cc1 | inactive |
| CCOC(=O)c1c(NC(=O)c2ccc(C(C)C)cc2)sc2c(CN(C)C)c(O)ccc12 | active |
| Cc1nc2ncnc(Cl)c2[nH]1 | inactive |
